target.or.system: mGPR65 (Mus musculus)
Construct: expressed in transfected cells; host or cells: HeLa (ATCC CCL-2), lentiviral transduction, pLX317
Sequence (Q61038 whole entry): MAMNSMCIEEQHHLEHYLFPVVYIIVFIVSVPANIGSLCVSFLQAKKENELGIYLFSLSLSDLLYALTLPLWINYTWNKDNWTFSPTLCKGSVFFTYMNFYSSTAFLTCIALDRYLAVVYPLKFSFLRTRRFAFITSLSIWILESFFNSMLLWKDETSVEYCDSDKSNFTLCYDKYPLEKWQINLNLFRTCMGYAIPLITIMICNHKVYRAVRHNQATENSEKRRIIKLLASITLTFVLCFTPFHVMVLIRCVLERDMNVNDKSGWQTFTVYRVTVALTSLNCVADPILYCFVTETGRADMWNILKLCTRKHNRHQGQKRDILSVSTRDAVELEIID
experimental.protocol: cAMP detection in HeLa expression cell line, mGPR65
Type: cell-based
experimental.conditions: HeLa, 2nd mGPR column pair; relative to 100uM forskolin (100%) and DMSO (0%); NA = no activity; read-out: mGPR Max Activity %
Provide the reported Emax of each item.
Answers are plain numbers, in %.

Known results for compounds:
Cc1ncc(NC(=O)c2cnn3c(O)cc(-c4ccc(COC(C)C)cc4)nc23)cn1 : 49
CC(C)OCc1ccc(-c2cc(O)n3ncc(C(=O)Nc4ccccc4)c3n2)cc1 : 48.6

Moving on to another compound below.
May I ask what Emax has been recorded for `Cc1ccc(NC(=O)c2cnn3c(O)cc(-c4ccc(COC(C)C)cc4)nc23)cc1Cl` ?
48.8
